- Test Details: gradient 5% acetonitrile 3 min, to 50% in 2 min, to 85% in 15 min, held 3 min, 100 µL/min
- Recorded Conditions: column: Zorbax Extend-C18 2.1 x 50 mm; eluents: water / acetonitrile, 0.1% formic acid
Property Name: RP-LC retention time
Report field: quantity (unit follows the number).

**Q:** Fill in the blank: the reported RP-LC retention time of CC1Oc2ccccc2N(Cc2nc(-c3ccc(F)c(Cl)c3)no2)C1=O (stereo not given) is ____.
**A:** 1190 s

----------
- Test Details: gradient 5% acetonitrile 3 min, to 50% in 2 min, to 85% in 15 min, held 3 min, 100 µL/min
- Recorded Conditions: column: Zorbax Extend-C18 2.1 x 50 mm; eluents: water / acetonitrile, 0.1% formic acid
Property Name: RP-LC retention time (s)
Give the number; s is assumed, so skip it.

>>> readout_number("Cc1cccc(CNS(=O)(=O)c2c(C)sc(C)c2-c2n[nH]c(C)c2C)c1")
1070
>>> readout_number("O=c1n(Cc2cccc(Cl)c2)nc2ccc(S(=O)(=O)N3CCCCCC3)cn12")
1040

**Q:** Suppose we examine the compound `COc1ccccc1OCCN1C(=O)CCc2c(C)ncnc21` ; what RP-LC retention time value has been reported?
**A:** 696

**Q:** Record request: RP-LC retention time value, item CCOc1ccccc1CNC(=O)C1CCCN(c2nnc(C)c3c(C)n(-c4ccccc4)nc23)C1 (stereo not given)
**A:** 774

**Q:** Sample `Cc1cc(C(=O)O)c2cc(F)ccc2n1` — what was its RP-LC retention time?
**A:** 486

**Q:** If you can, please state the reported RP-LC retention time value of COc1ccc(-c2nnc(COc3ccc(NC(=O)C(NC(=O)c4ccco4)C(C)C)cc3)o2)cc1 (stereo not given) .
**A:** 854

**Q:** Name the recorded RP-LC retention time for `COc1ccc(-c2noc(N3CCC(C(=O)NCCC4=CCCCC4)CC3)n2)cc1` .
**A:** 1050
